# assay.target: T1, human CD37 (human, UniProt P11049 1-278)
# T1 construct: Tetraspanin antigen; Expressed on 300-19 cells transfected with pSRa-CD37 (entire CDS) or endogenous on WSU-DLCL-2, BJAB and Ramos lymphoma cells; also called CD37 antigen; human CD37 wildtype
# T1 sequence: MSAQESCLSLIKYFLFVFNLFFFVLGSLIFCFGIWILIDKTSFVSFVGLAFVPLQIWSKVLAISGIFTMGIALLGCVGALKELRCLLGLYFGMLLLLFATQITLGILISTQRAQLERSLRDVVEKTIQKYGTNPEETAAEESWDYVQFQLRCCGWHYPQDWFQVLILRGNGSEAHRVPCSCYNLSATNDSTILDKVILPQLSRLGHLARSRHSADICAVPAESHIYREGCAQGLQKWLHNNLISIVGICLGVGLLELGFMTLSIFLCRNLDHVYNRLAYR
# test.details: flow cytometry titration on BJAB cells; apparent Kd
Listed here are binders together with their documented pKd.
Answer as the number alone; pKd is minus log10 of concentration in mol/L.

Illustrative cases are given below, each with its answer.
muCD37-51 (antibody, mouse IgG2a, kappa, V domains shown, Murine hybridoma antibody) VH: DVQLQESGPDLLKPSQSLSLTCTVTGYSISSGFAWHWIRQFPGNKLEWMGYIHYSGSTNYSPSLKSRISITRDSSKNQFFLQLNSVTTEDTATYYCARGYYGFGAWFVYWGQGTLVTVSA VL: QIVLTQSPAIMSASPGEKVTMTCSATSSVTYMHWYQQKSGTSPKRWIYDTSKLASGVPARFSGSGSGTSYSLTISNMEAEDAATYYCQQWSSNPPTFGSGTKLEIKR    9.22
huCD37-51 (antibody, human IgG1, kappa, V domains shown, Humanized antibody) VH: EVQLVESGPEVLKPGESLSLTCTVSGYSISSGFAWHWIRQFPGKGLEWMGYIHYSGSTNYSPSLQGRISITRDSSINQFFLQLNSVTASDTATYYCARGYYGFGAWFVYWGQGTLVTVSA VL: EIVLTQSPATMSASPGERVTMTCSATSSVTYMHWYQQKPGQSPKRWIYDTSKLASGVPARFSGSGSGTSYSLTISSMEAEDAATYYCQQWSSNPPTFGQGTKLEIKR    9.10
muCD37-38 (antibody, mouse IgG1, kappa, V domains shown, Murine hybridoma antibody) VH: DVQLQESGPDLVKPSQSLSLTCTVTGYSITSGFGWHWIRQFPGNKLEWMAYILYSGGTDYNPSLKSRISITRDTSKNQFFLRLSSVTTEDTATYYCARGYYGYGAWFVYWGQGTLVTVSA VL: QIVLTQSPAIMSASPGEKVTMTCSASSSVTYMHWYQQKSGTSPKRWIYDTSKLASGVPARFSGGGSGTSYSLTISSMEAEDAATYYCQQWISNPPTFGGGTKLEIKR    9.40
muCD37-57 (antibody, mouse IgG2a, kappa, V domains shown, Murine hybridoma antibody) VH: DVQLQESGPDLLKPSQSLSLTCTVTGYSITSGFAWHWIRQFPGNKLEWMGYILYSGSTVYSPSLKSRISITRDTSKNQFFLQLNSVTTEDTATYYCARGYYGYGAWFAYWGQGTLVTVSA VL: QIVLTQSPAIMSASPGEKVTMTCSATSSVTYMHWYQQKSGTSPKRWIYDTSKLASGVPARFSGSGSGTSYSLTISSMEAEDAATYYCQQWSDNPPTFGSGTKLEIKR    9.00

Now take the following binder into account.
pKd reported for this binder huCD37-56 (antibody, human IgG1, kappa, V domains shown, Humanized antibody) VH: QVQLQESGPGLVKPSQSLSLTCTVSGYSITSGFAWHWIRQFPGKGLEWMGYIHYSGGTNYNPSLKSRVSITRDTSKNQFFLQLNSVTAADTATYYCARGYYGFGAWFAYWGQGTLVPVSA VL: DIVLTQSPAFMSASPGEKVTMTCSASSSVTYMHWYQQKPDQSPKRWIYDTSNLASGVPSRFSGGGSGTDYSLTISSMEAEDAATYYCQQWISDPPTFGQGTKLEIKR : 9.70
